Assay: Pharmacokinetic study in rats after oral administration of QSG
Conditions: exposure level (AUC0→∞) compared with the dosage of each compound in QSG
QUANTITY: Oral relative bioavailability (%)
Respond numerically; units are % and should not be typed.

q: Sample CC(C)(O)[C@@H]1CC[C@](C)([C@H]2[C@@H](O)C[C@@]3(C)[C@@H]4C[C@H](O[C@@H]5O[C@H](CO)[C@@H](O)[C@H](O)[C@H]5O)[C@H]5C(C)(C)[C@@H](O[C@@H]6OC[C@@H](O)[C@H](O)[C@H]6O)CC[C@@]56C[C@@]46CC[C@]23C)O1 [Astragaloside IV] — what was its Oral relative bioavailability?
a: 0.107

q: Name the reported Oral relative bioavailability value associated with the compound COc1ccc(-c2coc3cc(O)ccc3c2=O)cc1
a: 0.033

q: I am curious: what Oral relative bioavailability value has been reported for O=C(/C=C/c1ccc(O)c(O)c1)O[C@H]1[C@H](O)C[C@](O)(C(=O)O)C[C@H]1O ?
a: 0.026

q: Param item = O=C(/C=C/c1ccc(O)c(O)c1)O[C@H]1[C@H](O)C[C@](O)(C(=O)O)C[C@H]1OC(=O)/C=C/c1ccc(O)c(O)c1 ; retrieve measured Oral relative bioavailability.
a: 0.008

---

Assay: Concentrations of 24 analytes in QSG treated plasma (Table S5)
Conditions: QSG treated plasma, 2 h, n = 5
Task for the reader: assign each of the following molecules its reported Concentration.
Number in ng/mL, nothing else.

q: Give the measured Concentration of CC(C)(O)[C@@H]1CC[C@](C)([C@H]2[C@@H](O)C[C@@]3(C)[C@@H]4C[C@H](O[C@@H]5O[C@H](CO)[C@@H](O)[C@H](O)[C@H]5O)[C@H]5C(C)(C)[C@@H](O[C@@H]6OC[C@@H](O)[C@H](O)[C@H]6O)CC[C@@]56C[C@@]46CC[C@]23C)O1 [Astragaloside IV] .
a: 3.783

q: I have this molecule here, O=C(/C=C/c1ccc(O)c(O)c1)O[C@H]1[C@H](O)C[C@](O)(C(=O)O)C[C@H]1OC(=O)/C=C/c1ccc(O)c(O)c1 , and I need its recorded Concentration.
a: 7.777

---

Test: Concentrations of 24 analytes in QSG treated plasma (Table S5)
Settings: Sprague Dawley, rat, plasma, oral, 7 g/kg
QUANTITY: log10 concentration at 0.08 h (log10 of the value in ng/mL)
Could you please treat all values as log10 of concentration at 0.08 h in ng/mL?

q: Which log10 concentration at 0.08 h value is on record for O=C1C[C@@H](c2ccc(O[C@@H]3O[C@H](CO)[C@@H](O)[C@H](O)[C@H]3O)cc2)Oc2cc(O)ccc21 ?
a: 0.32

q: I am curious: what log10 concentration at 0.08 h value has been reported for O=C(/C=C/c1ccc(O)cc1)c1ccc(O)cc1O ?
a: -0.16

q: Return reported log10 concentration at 0.08 h; argument: O=C(/C=C/c1ccc(O)c(O)c1)O[C@@H]1C[C@](O)(C(=O)O)C[C@@H](O)[C@H]1O
a: 1.82

q: Consider the compound shown here: COc1ccc(-c2coc3cc(O)ccc3c2=O)cc1O What is its recorded log10 concentration at 0.08 h?
a: -0.02

q: Given the entry O=c1cc(-c2ccc(O)c(O)c2)oc2cc(O)cc(O)c12 , report its measured log10 concentration at 0.08 h.
a: 0.77

q: Which value of log10 concentration at 0.08 h has been reported for COc1ccc(-c2coc3cc(O)ccc3c2=O)cc1 in the records?
a: -0.13

Recorded values, source paper PMC12567096.
